Source: paper PMC12655351

- Test system: HCT-15
- assay text: NCI-60 SRB screen
- particulars: Homo sapiens, HCT-15, 48 h
Hi there, I'd appreciate the recorded GI50 for every entry that follows.
Give bare numbers, in nM.

Use these answered entries as a reference point.
[[record]]
compound = "CCCCC(C(=O)O)N1C(=O)/C(=C/C=C/c2ccc([N+](=O)[O-])o2)SC1=S (stereo not drawn) [6b]"
reported_measurement = 1710

[[record]]
compound = "CCCC(C(=O)O)N1C(=O)/C(=C/C=C/c2ccc([N+](=O)[O-])o2)SC1=S (stereo not drawn) [4b]"
reported_measurement = 1650

[[record]]
compound = "CC(C)C(C(=O)O)N1C(=O)/C(=C/C=C/c2ccc([N+](=O)[O-])o2)SC1=S (stereo not drawn) [5b]"
reported_measurement = 730

[[record]]
compound = "O=C(O)CCCCCN1C(=O)/C(=C/C=C/c2ccc([N+](=O)[O-])o2)SC1=S [14b]"
reported_measurement = 190


Need GI50 for each of these compounds.
1. O=C(O)C(c1ccccc1)N1C(=O)/C(=C/C=C/c2ccc([N+](=O)[O-])o2)SC1=S (stereo not drawn) [9b]
2. O=C(O)CCCN1C(=O)/C(=C/C=C/c2ccc([N+](=O)[O-])o2)SC1=S [13b]

Found:
1. 7730
2. 180

###

- Tested on: HOP-92
- assay text: NCI-60 SRB screen
- particulars: read-out: LC50; HOP-92, 48 h
measured property: CC50

Lookup: Provide one value: measured CC50 of O=C(O)CCCN1C(=O)/C(=C/C=C/c2ccc([N+](=O)[O-])o2)SC1=S [13b]
Found: 4.24 µM

###

- Test system: OVCAR-3
- particulars: OVCAR-3, 48 h
measured property: TGI (µM)
Answers are plain numbers, in µM.

[[record]]
molecule = "CC(C)C(C(=O)O)N1C(=O)/C(=C/C=C/c2ccc([N+](=O)[O-])o2)SC1=S (centres unmarked)"
measurement_unit = "µM"
reported_measurement = 2.77

[[record]]
molecule = "CCCC(C(=O)O)N1C(=O)/C(=C/C=C/c2ccc([N+](=O)[O-])o2)SC1=S (centres unmarked)"
measurement_unit = "µM"
reported_measurement = 5.39

[[record]]
molecule = "CCCCC(C(=O)O)N1C(=O)/C(=C/C=C/c2ccc([N+](=O)[O-])o2)SC1=S (centres unmarked)"
measurement_unit = "µM"
reported_measurement = 5.33

[[record]]
molecule = "O=C(O)CCN1C(=O)/C(=C/C=C/c2ccc([N+](=O)[O-])o2)SC1=S [12b]"
measurement_unit = "µM"
reported_measurement = 3.01


For the next question, use this molecule.
Lookup: Let me know recorded TGI for O=C(O)C(c1ccccc1)N1C(=O)/C(=C/C=C/c2ccc([N+](=O)[O-])o2)SC1=S (centres unmarked) , thanks.
Found: 21.4

###

Give TGI for every item shown.
- System: OVCAR-8
- particulars: OVCAR-8, 48 h
Give bare numbers, in µM.

[[record]]
molecule = "CC(C)C(C(=O)O)N1C(=O)/C(=C/C=C/c2ccc([N+](=O)[O-])o2)SC1=S (centres unmarked)"
reported_measurement = 4.78


Answer for every listed entry: what is its TGI? The entries follow.
1. CCCC(C(=O)O)N1C(=O)/C(=C/C=C/c2ccc([N+](=O)[O-])o2)SC1=S (centres unmarked)
2. O=C(O)C(c1ccccc1)N1C(=O)/C(=C/C=C/c2ccc([N+](=O)[O-])o2)SC1=S (centres unmarked)
3. O=C(O)CCN1C(=O)/C(=C/C=C/c2ccc([N+](=O)[O-])o2)SC1=S [12b]

Found:
[4.64, 25.5, 7.11]

Lookup: Please list TGI recorded for the molecule CCCCC(C(=O)O)N1C(=O)/C(=C/C=C/c2ccc([N+](=O)[O-])o2)SC1=S (centres unmarked)
Found: 4.86
